# study-system: Aryl hydrocarbon receptor (Homo sapiens)
# protocol-summary: AHR activators, primary screen, cell-based, luminescence, luciferase reporter, human (AID 2796);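 further: 0% = vehicle wells and 100% = reference agonist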
# test-conditions: AHR-responsive luciferase reporter cells, at 5 µM, active compounds read high
Hit rate of the full screen: of about 320,000 compounds, about 8,000 (2.5%) were called active. The list comes from a sample in which actives are over-represented; it also holds close analogues and randomly drawn compounds.
measured-metric: activation (%)
Report only the number, with the unit % understood.

Consider the reported activation for these compounds:
Give the value of activation reported for the following: O=S(=O)(NCC1CCCO1)c1cnc(Cl)c(Cl)c1 (stereo unspecified)
-2.6

Give the value of activation reported for the following: Cc1ccc2nc(SCc3cn4c(C)cc(C)nc4n3)[nH]c2c1
62.1

Give the value of activation reported for the following: Cc1ccc2nc(SCC(=O)NC3CCCC3)[nH]c2c1
42.2

Give the value of activation reported for the following: Cc1cccc(NC(=S)Nc2ccc(Cl)c(Cl)c2)c1
2.86

Give the value of activation reported for the following: CC1CCN(C(=O)C2CCN(S(=O)(=O)N3CCC4(CC3)OCCO4)CC2)CC1
0.37

Give the value of activation reported for the following: Brc1ccc(-c2noc(-c3ccccc3)n2)o1
122

Give the value of activation reported for the following: CCC1(c2ccccc2)NC(=O)N(CC(=O)Nc2ccccc2C(=O)NC2CCCC2)C1=O (stereo unspecified)
1.57

Give the value of activation reported for the following: Cc1ccc(S(=O)(=O)N(C)CC(=O)NCC(c2ccc(F)cc2)N2CCOCC2)cc1 (stereo unspecified)
-0.69

Give the value of activation reported for the following: Cc1csc(NC(=S)Nc2cccc(Cl)c2)n1
81.2

Give the value of activation reported for the following: O=C(NC(C(=O)NCCN1CCOCC1)C12CC3CC(CC(C3)C1)C2)C1CCCCC1 (stereo unspecified)
2.26

// next item, activation requested
Give the value of activation reported for the following: CCN(CC)S(=O)(=O)c1ccc(Cl)c(C(=O)NC(C)C(c2cccs2)N2CCCC2)c1 (stereo unspecified)
1.85

* * *

# study-system: Aryl hydrocarbon receptor (Homo sapiens) (UniProt P35869)
# Sequence (P35869 whole entry, looked up): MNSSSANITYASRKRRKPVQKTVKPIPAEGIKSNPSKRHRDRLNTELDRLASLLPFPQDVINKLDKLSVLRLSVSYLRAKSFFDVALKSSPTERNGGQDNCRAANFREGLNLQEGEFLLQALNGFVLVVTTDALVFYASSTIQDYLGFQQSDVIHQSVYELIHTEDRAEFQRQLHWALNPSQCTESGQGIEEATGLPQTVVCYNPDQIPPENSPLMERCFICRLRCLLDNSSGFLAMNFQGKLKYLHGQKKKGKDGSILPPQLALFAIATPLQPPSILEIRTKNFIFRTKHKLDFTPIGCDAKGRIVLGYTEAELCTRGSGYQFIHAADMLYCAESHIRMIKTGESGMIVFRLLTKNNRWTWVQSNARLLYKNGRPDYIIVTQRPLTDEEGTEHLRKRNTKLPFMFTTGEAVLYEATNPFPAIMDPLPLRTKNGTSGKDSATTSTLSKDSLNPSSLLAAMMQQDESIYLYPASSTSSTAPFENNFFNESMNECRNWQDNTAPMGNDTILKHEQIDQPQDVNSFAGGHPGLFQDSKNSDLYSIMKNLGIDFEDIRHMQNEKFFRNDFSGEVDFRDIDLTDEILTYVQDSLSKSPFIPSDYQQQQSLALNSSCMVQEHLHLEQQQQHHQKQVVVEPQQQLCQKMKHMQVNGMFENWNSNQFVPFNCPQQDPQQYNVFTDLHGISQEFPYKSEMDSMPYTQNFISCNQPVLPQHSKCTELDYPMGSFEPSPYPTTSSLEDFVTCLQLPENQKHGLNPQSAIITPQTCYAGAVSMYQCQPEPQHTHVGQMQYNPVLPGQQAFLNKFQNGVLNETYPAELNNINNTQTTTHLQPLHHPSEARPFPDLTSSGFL
# protocol-summary: AHR activators, primary screen, cell-based, luminescence, luciferase reporter, human (AID 2796);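 further: 0% = vehicle wells and 100% = reference agonist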
# test-conditions: AHR-responsive luciferase reporter cells, at 5 µM
The whole screen tested about 320,000 compounds, of which about 8,000 (2.5%) were called active. Cut-off read from the data, not from the text of the source: active = activation above about 47%; inactive = the rest. For the sample, actives were picked, then their nearest neighbours and some compounds at random.
Respond using exactly one of the listed classes: active, inactive

Name the outcome recorded for COc1cc(CNCc2ccc3c(c2)OCO3)c([N+](=O)[O-])cc1OC in the assay.
active

Name the outcome recorded for Cc1ccc(CNCc2ccc3c(c2)OCO3)c(C)c1 in the assay.
inactive

Name the outcome recorded for COC(=O)/C(=C\Nc1ccccc1)NC(=O)c1ccc(Cl)cc1Cl in the assay.
inactive

***
Name the outcome recorded for O=C(c1snnc1-c1ccccc1)N1CCOCC1 in the assay.
inactive

Name the outcome recorded for CCCn1nnc2sc3c(c2c1=O)CCC(C)C3 (configuration not stated) in the assay.
inactive

Name the outcome recorded for CCSc1ccccc1C(=O)NCc1ccc(OC)cc1 in the assay.
inactive

Name the outcome recorded for CC1CCc2sc3nc(N4CCN(CCO)CC4)n4ncnc4c3c2C1 (configuration not stated) in the assay.
active

Name the outcome recorded for CCC(=O)N(Cc1cc2ccccc2[nH]c1=O)c1ccc(OC)cc1 in the assay.
inactive

* * *

# study-system: Aryl hydrocarbon receptor (Homo sapiens)
# protocol-summary: AHR activators, primary screen, cell-based, luminescence, luciferase reporter, human (AID 2796);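 further: 0% = vehicle wells and 100% = reference agonist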
# test-conditions: AHR-responsive luciferase reporter cells, at 5 µM
Screen size: about 320,000 compounds; about 8,000 (2.5%) were called active. Rule as the data show it: active = activation above about 47%; inactive = the rest. The sample as a whole holds a higher share of actives than the screen did.
Respond using exactly one of the listed classes: active, inactive

The examples below pair each entry with its known result.
Name the outcome recorded for CCc1cccc(C)c1NS(=O)(=O)c1cc(Br)cnc1N in the assay.
inactive

Name the outcome recorded for Cc1ccc2nc(-c3ccncc3)cc(C(=O)Nc3ccc4c(c3)OCCO4)c2c1 in the assay.
inactive

Name the outcome recorded for CC(C)CNS(=O)(=O)c1ccc(C(=O)Nc2ccc3c(c2)OCO3)cc1 in the assay.
inactive

Name the outcome recorded for Cc1ccc2nc(-c3ccccn3)cc(C(=O)Nc3ccc4c(c3)OCO4)c2c1 in the assay.
active

// next entry
Name the outcome recorded for C/C(=N\NC(=S)Nc1ccc(C)cc1)c1cc2ccccc2o1 in the assay.
active

* * *

# study-system: Aryl hydrocarbon receptor (Homo sapiens)
# protocol-summary: AHR activators, primary screen, cell-based, luminescence, luciferase reporter, human (AID 2796);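 further: 0% = vehicle wells and 100% = reference agonist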
# test-conditions: AHR-responsive luciferase reporter cells, at 5 µM, active compounds read high
The campaign covered roughly 320,000 compounds. About 8,000 (2.5%) were called active. The sample as a whole holds a higher share of actives than the screen did.
Label Condition met when activation is at or above 5%; otherwise label Condition not met.

Decide: activation of COn1c(-c2ccc(Cl)cc2Cl)nc2ncccc21 >= 5%?
Condition not met

Decide: activation of CN(C)C1=NC[C@H](Cc2ccccc2)N1CCc1ccc(F)cc1 >= 5%?
Condition met

Decide: activation of Cc1ccc(-c2nc(C#N)c(NCCCn3ccnc3)o2)cc1 >= 5%?
Condition met

Decide: activation of Cc1ccc(S(=O)(=O)c2nc(NCCCn3ccnc3)sc2Cl)cc1 >= 5%?
Condition met

Decide: activation of O=C(C1CCN(C2CCN(Cc3cccc4c3OCO4)CC2)CC1)N1CCOCC1 >= 5%?
Condition not met

***
Decide: activation of O=C(CCN1C(=O)c2ccccc2C1=O)NCCCn1ccnc1 >= 5%?
Condition met

* * *

# study-system: Aryl hydrocarbon receptor (Homo sapiens) (UniProt P35869)
# protocol-summary: AHR activators, primary screen, cell-based, luminescence, luciferase reporter, human (AID 2796);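 further: 0% = vehicle wells and 100% = reference agonist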
# test-conditions: AHR-responsive luciferase reporter cells, at 5 µM
Among all 320,000 compounds or so, about 8,000 (2.5%) were called active. No stated cut-off is given here; in the data, active means activation above about 47%; inactive means the rest. Shown is part of a subset that was picked to be rich in actives.
Respond using exactly one of the listed classes: label 1 (active), label 0 (inactive)

Name the outcome recorded for COc1ccc(OC)c(-c2csc(-c3cccs3)n2)c1 in the assay.
label 1

***
Name the outcome recorded for Cc1c(C(=O)Nc2cccc(S(=O)(=O)N3CCOCC3)c2)oc2ccccc12 in the assay.
label 1

Name the outcome recorded for Cc1occc1C(=O)Nc1cccc(S(=O)(=O)N2CCOCC2)c1 in the assay.
label 0

Name the outcome recorded for O=C(COC(=O)c1ccc[nH]c1=O)Nc1ccc2c(c1)OC(F)(F)O2 in the assay.
label 0

Name the outcome recorded for CCc1nn(CC(=O)N2CCN(c3cc(C)ccc3C)CC2)c(=O)c2cc3occc3n12 in the assay.
label 0

Name the outcome recorded for CN=c1scc(-c2cc(OC)ccc2OC)n1/N=C/c1c(C)[nH]c2ccccc12 in the assay.
label 0

Name the outcome recorded for CC(=O)Oc1ccccc1C(=O)Nc1ncc([N+](=O)[O-])s1 in the assay.
label 0

Name the outcome recorded for O=C1c2cccc3cccc(c23)C(=O)N1c1cccc(O)c1 in the assay.
label 0

Name the outcome recorded for COc1ccc(NC(=O)c2oc3ccc(S(=O)(=O)N4CCOCC4)cc3c2C)cc1 in the assay.
label 0

Name the outcome recorded for c1ccc2c(CNn3cnnc3)cccc2c1 in the assay.
label 0

Name the outcome recorded for Cc1ccc(C)c(N2CCN(C(=O)CCCn3c(=O)c4cccn4c4cccnc43)CC2)c1 in the assay.
label 0

Name the outcome recorded for CCCN1C(=O)C(NC(C)=O)c2cc(OC)ccc21 (stereo not drawn) in the assay.
label 0

Name the outcome recorded for O=C(OCC(=O)N1CCCC1)c1ccc(Cl)nc1 in the assay.
label 0

* * *

# study-system: Aryl hydrocarbon receptor (Homo sapiens) (UniProt P35869)
# protocol-summary: AHR activators, primary screen, cell-based, luminescence, luciferase reporter, human (AID 2796);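 further: 0% = vehicle wells and 100% = reference agonist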
# test-conditions: AHR-responsive luciferase reporter cells, at 5 µM, active compounds read high
The whole screen tested about 320,000 compounds, of which about 8,000 (2.5%) were called active. What follows is part of a selection rich in actives, with near analogues and random picks from the rest.
Label Fulfilled when activation is at or above 40%; otherwise label Not fulfilled.

The examples below pair each entry with its known result.
Decide: activation of COc1ccc([N+](=O)[O-])cc1-c1nc2ccccc2nc1-c1ccccc1 >= 40%?
Not fulfilled

Decide: activation of COc1ccc(NC(=O)CNc2cc(S(=O)(=O)N3CCOCC3)ccc2N2CCOCC2)c(OC)c1 >= 40%?
Not fulfilled

Decide: activation of COC(=O)c1ccccc1NC(=O)CSc1ccccn1 >= 40%?
Not fulfilled

Decide: activation of CCOc1cccc(C(=O)Nc2nnc(-c3cccs3)s2)c1 >= 40%?
Not fulfilled

// next entry
Decide: activation of Cn1nc(-c2ccccc2)c2cc([N+](=O)[O-])ccc21 >= 40%?
Fulfilled

* * *

# study-system: Aryl hydrocarbon receptor (Homo sapiens) (UniProt P35869)
# protocol-summary: AHR activators, primary screen, cell-based, luminescence, luciferase reporter, human (AID 2796);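 further: 0% = vehicle wells and 100% = reference agonist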
# test-conditions: AHR-responsive luciferase reporter cells, at 5 µM, active compounds read high
About 8,000 (2.5%) of roughly 320,000 compounds were called active. The sample as a whole holds a higher share of actives than the screen did.
measured-metric: activation (%)
Report only the number, with the unit % understood.

Give the value of activation reported for the following: COc1cc(OC)c(NS(=O)(=O)c2cn(C)cn2)cc1Cl
-0.48

// next item, activation requested
Give the value of activation reported for the following: C[C@@H]1NC(=O)c2cc([N+](=O)[O-])cc(F)c2NCCC[C@@H](C(N)=O)NC(=O)[C@H](CC(N)=O)NC1=O
-4.67
